For each entry below, report its protein stability index value.
B1: ZNF263 (parent)
chain: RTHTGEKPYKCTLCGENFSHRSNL

Variants of: B1
Method Description: protein stability index of a GFP-peptide fusion (GPS, HEK-293T) (PSI 1-6); higher = more stable;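 further: lentivirally expressed fusions sorted by FACS into six bins by GFP to DsRed ratio, PSI derived from sequencing read proportions per bin multiplied by bin number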
Run Conditions: c terminus: a fixed tail appended

Some variants with recorded protein stability index:
primary_sequence=RTHTGEKPYKCDLCGENFSHRSNL value_kind="protein stability index" result=2.01
primary_sequence=RTHTGEKPYKCTLCGSNFSHRSNL value_kind="protein stability index" result=1.99
primary_sequence=RTHTGEKPFKCTLCGENFSHRSNL value_kind="protein stability index" result=1.96

Quick one: give me protein stability index for each item below, same order please.
1. RTHTGEKLYKCTLCGENFSHRSNL
2. RTHTGEKPYKCQLCGENFSHRSNL

1.98
2.04
